TEST TARGET: BRD4 BD2 (Homo sapiens, UniProt O60885)
METHOD: AlphaScreen binding assay, BRD4 Bromodomain 2
OBSERVED PROPERTY: IC50

## Input Given the entry CC(=O)N1c2ccc(-c3ccc(S(=O)(=O)C(C)C)cc3)cc2N(C(=O)OC2CCCCC2)C[C@@H]1C , report its measured IC50.
## Output 50 to 500 nM

## Input Given the entry CC(=O)N1c2ccccc2N(C(=O)c2ccc(-n3cccn3)cc2)C[C@@H]1C , report its measured IC50.
## Output > 500 nM

## Input Given the entry CC(=O)N1c2ccc(-c3cnc(N)cn3)cc2N(C(=O)C2CC2)C[C@@H]1C , report its measured IC50.
## Output 50 to 500 nM

## Input Given the entry CC(=O)N1c2ccc(-c3ccc(S(=O)(=O)N4CCN(C)CC4)cc3)cc2N(C(=O)c2ccco2)C[C@@H]1C , report its measured IC50.
## Output < 50 nM

## Input Given the entry CCS(=O)(=O)c1ccc(-c2ccc3c(c2)N(C(=O)OC(C)C)C[C@H](C)N3C(C)=O)cc1 , report its measured IC50.
## Output 50 to 500 nM

## Input Given the entry CC(=O)N1c2ccc(-c3ccc(S(=O)(=O)N4CCC4)cc3)cc2N(C(=O)c2ccco2)C[C@@H]1C , report its measured IC50.
## Output < 50 nM

## Input Given the entry CC(=O)N1c2ccc(-c3ccc(S(C)(=O)=O)cn3)cc2N(C(=O)c2ccco2)C[C@@H]1C , report its measured IC50.
## Output < 50 nM
